Property: rat MASP1 IC50; scope: individual binders
Molecular target: T1, recombinant rat MASP1 active protease (amino acids 302-704, C-terminal His Tag) (rat, UniProt Q8CHN8 302-704)
T1 sequence: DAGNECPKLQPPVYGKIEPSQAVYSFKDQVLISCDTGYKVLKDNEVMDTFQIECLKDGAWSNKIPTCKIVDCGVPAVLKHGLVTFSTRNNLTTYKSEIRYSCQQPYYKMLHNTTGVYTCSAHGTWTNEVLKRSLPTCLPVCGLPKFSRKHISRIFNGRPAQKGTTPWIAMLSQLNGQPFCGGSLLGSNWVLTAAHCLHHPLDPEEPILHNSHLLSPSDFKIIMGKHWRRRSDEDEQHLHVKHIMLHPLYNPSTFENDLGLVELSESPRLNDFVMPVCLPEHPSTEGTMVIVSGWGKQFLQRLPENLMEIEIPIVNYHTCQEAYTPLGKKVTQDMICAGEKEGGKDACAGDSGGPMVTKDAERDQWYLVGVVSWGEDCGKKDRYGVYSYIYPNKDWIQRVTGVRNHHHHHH
Assay: cell-based or functional assay
Bridge positions count the residues as written; N and C are the ends. Square brackets hold non-standard residues; d marks the D form. Ends that are not written are not given here. (S)‑4‑Piperazine‑2‑carboxylic acid = (S)-4-piperazine-2-carboxylic acid; Oic = O=C(O)[C@@H]1C[C@@H]2CCCC[C@@H]2N1; tBuAla = CC(C)(C)C[C@H](N)C(=O)O; Pen = CC(C)(S)[C@H](N)C(=O)O; Sar = CNCC(=O)O
Quick reminder: number only, in nM, skip the unit.

AICSRS[tBuAla]P[Oic]ICI-NH2 (disulfide 3-11; N-terminus assumed; SMILES CC[C@H](C)[C@H](NC(=O)[C@@H]1CSSC[C@H](NC(=O)[C@@H](NC(=O)[C@H](C)N)[C@@H](C)CC)C(=O)N[C@@H](CO)C(=O)N[C@@H](CCCNC(=N)N)C(=O)N[C@@H](CO)C(=O)N[C@@H](CC(C)(C)C)C(=O)N2CCC[C@H]2C(=O)N2[C@@H](C[C@@H]3CCCC[C@@H]32)C(=O)N[C@@H]([C@@H](C)CC)C(=O)N1)C(N)=O) [Example 99: AIC+SRS-((tBu)A)-P-(Oic)-IC+I-NH2]    220

Could you now consider this next binder?
Req: # rat MASP1 IC50 lookup, item [Sar]ICSRSLP[Oic]I[Pen]I[(S)‑4‑Piperazine‑2‑carboxylic acid]-OH (disulfide 3-11) [Example 474: ((N-Me))-GIC+SRSLP-(Oic)-I-(Pen)+I-((S)-4-Piperazine-2-carboxylic acid)-OH]
Resp: 87
